- Test system: Acinetobacter baumannii T6474
- protocol_description: Bacterial growth minimal inhibitory concentration (broth microdilution, CLSI M7-A7)
- Assay type: cell-based
- study_conditions: Acinetobacter baumannii, T6474; cation-adjusted Mueller-Hinton Broth, microdilution; multiply-resistant (quinolone-resistant) strain; read-out: MIC for A. Baumannii T6474
- Method: Minimal Inhibitory Concentrations (MICs; mg/L) were determined in cation-adjusted Mueller-Hinton Broth by a microdilution method following the description given in “Methods for Dilution Antimicrobial Susceptibility Tests for Bacteria that Grow Aerobically”, Approved standard, 7th ed., Clinical and Laboratory Standards Institute (CLSI) Document M7-A7, Wayne, Pa., USA (2006). […]
measured_quantity: MIC

Given the molecule C[C@@](CCn1cc2cc(C#Cc3ccc(NC(=O)CO)cc3)ccc2n1)(C(=O)NO)S(C)(=O)=O [Example 47] and test system Acinetobacter baumannii T6474, the measured MIC is 1 µg/mL

Further cases:
Entry C[C@@](O)(C#CC#Cc1ccc2nn(CC[C@](C)(C(=O)NO)S(C)(=O)=O)cc2c1)CO [Example 46] under Acinetobacter baumannii T6474 had MIC of > 32 µg/mL

Lab entry: Acinetobacter baumannii T6474 assay, molecule COc1cccc(-c2ccc3nn(CCC(C)(C(=O)NO)S(C)(=O)=O)cc3c2)c1F (racemic) [RE7] , MIC = 0.5 µg/mL

# MIC measured on Acinetobacter baumannii T6474 for item C[C@@](CCn1cc2cc(C#CC#CC3(O)CCOCC3)ccc2n1)(C(=O)NO)S(C)(=O)=O [Example 15] = > 32 µg/mL

Hey, Acinetobacter baumannii T6474 data for CC(CCn1cc2cc(-c3ccc(OCCCN4CCOCC4)cc3)ccc2n1)(C(=O)NO)S(C)(=O)=O.O=CO (racemic) [RE1] : MIC came out at 4 µg/mL

MIC for Acinetobacter baumannii T6474 with input CN(C)CC#CC#Cc1ccc2nn(CC[C@](C)(C(=O)NO)S(C)(=O)=O)cc2c1 [Example 75] equals > 32 µg/mL

GET /values?item= C[C@@](CCn1cc2cc(C#CC#C[C@@]3(F)C[C@@H]3CO)ccc2n1)(C(=O)NO)S(C)(=O)=O [Example 74] &system= Acinetobacter baumannii T6474 returns MIC: 4 µg/mL
